Assay: chemical genetic growth profiling, strain panel (AID 1159580);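 also: tested at 20 µM; growth read once vehicle control cultures reached saturation at 30 °C; 1 = growth at the plate median or of vehicle wells; lower values mean less growth of the strain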
Details: S. cerevisiae deletion strains, growth OD, locus YER123W, strain YCK3
The campaign covered roughly 5,500 compounds. About 2,000 (36%) were called active. Inconclusive results (about 18%) are left out. Rule as the data show it: active = normalized growth mostly below about 0.91 (no sharp cut-off); inconclusive = no clear call, values can overlap the other calls; inactive = mostly above about 0.92. The list shows a part of the results.
Your response should consist of one outcome taken from active, inactive

## Task Can you look up the reported call for CCc1ccn2cc(Nc3ccccc3Cl)nc2c1 for me?
## Result inactive

## Task Entry O=c1c2ccccc2[nH]c(=S)n1-c1cccc(C(F)(F)F)c1 : call = ?
## Result inactive

## Task For this compound, state the assay outcome: OC(CN1CCN(c2nc3ccc(Cl)cc3s2)CC1)Cn1ccc2ccccc21 (centres undefined)
## Result inactive

## Task For this compound, state the assay outcome: S=c1[nH]nc(Nc2ccc(I)cc2)s1
## Result active

----------
Would you kindly list normalized growth for each of these compounds?
Assay: chemical genetic growth profiling, strain panel (AID 1159580);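 also: tested at 20 µM; growth read once vehicle control cultures reached saturation at 30 °C; 1 = growth at the plate median or of vehicle wells; lower values mean less growth of the strain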
Conditions: S. cerevisiae deletion strains, growth OD, locus YLR330W, strain CHS5, stronger effect = lower value
Screen size: about 5,500 compounds; about 2,000 (36%) were called active. Not shown: some 18% with an inconclusive outcome. Some of the results follow.
Format: numeric value only, no unit, no commentary.

## Task State its normalized growth: COc1cc(-c2coc3cc(OCc4ccccc4)c(OC)c(O)c3c2=O)cc(OCc2ccccc2)c1OC
## Result 0.994

## Task Could you please provide reported normalized growth for CC(C)COCC(CN(Cc1ccccc1)c1ccccc1)N1CCCC1 (stereo not drawn) ? Thanks!
## Result 0.95

## Task Look up and state reported normalized growth for O=C(O)CN(CC(=O)O)Cc1cc2c(-c3ccccc3C(=O)O)c3cc(CN(CC(=O)O)CC(=O)O)c(=O)cc-3oc2cc1O
## Result 1.01

## Task State its normalized growth for this compound: CC1(C)NC(=O)N(c2ccc([N+](=O)[O-])c(C(F)(F)F)c2)C1=O
## Result 1.01

## Task Give the measured normalized growth for CC(C(=O)O)c1ccc(C(=O)c2cccs2)cc1 (stereo not drawn)
## Result 0.999

## Task Report measured normalized growth; entry is Cc1ccc(C)c(OCCCC(C)(C)C(=O)O)c1
## Result 0.932

## Task Tell me normalized growth reported for CC(=O)N[C@@H](CS)C(=O)O
## Result 1.01

## Task Determine its reported normalized growth: COc1cc(-c2coc3cc(OCc4ccccc4)c(OC)c(O)c3c2=O)cc(O)c1OC
## Result 0.827

----------
Assay: chemical genetic growth profiling, strain panel (AID 1159580);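 also: tested at 20 µM; growth read once vehicle control cultures reached saturation at 30 °C; 1 = growth at the plate median or of vehicle wells; lower values mean less growth of the strain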
Details: S. cerevisiae deletion strains, growth OD, locus YNL153C, strain GIM3
About 2,000 (36%) of roughly 5,500 compounds were called active. Not shown: some 18% with an inconclusive outcome. Rule as the data show it: active = normalized growth mostly below about 0.91 (no sharp cut-off); inconclusive = no clear call, values can overlap the other calls; inactive = mostly above about 0.92. The list shows a part of the results.
Answer with one of the outcomes t (active), f (inactive)

## Task Hi, do you know how CCCCN(CCCC)CCCOC(=O)c1ccc(N)cc1 came out in this test?
## Result f

## Task Write down the call the test reported for this molecule. Item: COC(=O)c1c(-c2c(Cl)cccc2Cl)noc1NC(=O)NN1CCCCC1
## Result f

## Task Hi, sorry to bother you, what did the test record for Cc1onc(-c2c(Cl)cccc2Cl)c1C(=O)Oc1ccc(Cl)c(Cl)c1 ?
## Result f

## Task Per the assay record, what outcome was assigned to CCCCOC(=O)c1ccc(N)cc1 ?
## Result f

## Task Outcome? NC[C@@H]1CC[C@@H](N)[C@@H](O[C@H]2[C@H](O)[C@@H](O[C@H]3O[C@H](CO)[C@@H](O)[C@H](N)[C@H]3O)[C@H](N)C[C@@H]2N)O1
## Result f

## Task # lookup: test call for CCCCOC(=O)c1ccccc1C(=O)OCc1ccccc1
## Result f

## Task Answer briefly: the call reported for OC(CN1CCN(c2nc3ccc(Cl)cc3s2)CC1)CN1CCCN(c2ncc(C(F)(F)F)cc2Cl)CC1 (stereo unspecified) in this assay.
## Result f

## Task What call does the record list for CCCCOC(=O)c1ccccc1C(=O)OCCCC ?
## Result f

## Task Hi, do you know how CCC(C)c1cnc(CC(C)C)c(=O)n1O (stereo unspecified) came out in this test?
## Result f

## Task # lookup: test call for CCCCCCOc1ccccc1C(N)=O
## Result t

## Task For this molecule, state the assay outcome: C=C1C(C)C2C(Cc3ccccc3)NC(=O)C23OC(=O)/C=C/C(O)CCCC(C)C/C=C/C3C1O (stereo unspecified)
## Result f
